Listed compounds paired with reported Inhibition
- System: Cryptococcus neoformans
- CONDITION_PARAMETERS: Concentration 32 ug.mL-1; ASSAY_TEST Inhibition of Fungal Growth; detection method Resazurin; Absorption (OD600-OD570); plate type 384well; NBS; CORNING #3640
- Description: Antifungal activity against Cryptococcus neoformans H99 ATCC 208821 (CO-ADD:FG_002); MIC in YNB media using NBS plates, by Resazurin OD(600-570)
Measured potencies and affinities stand elsewhere.
Form entry: value (%) — number only.

Given the compound Fc1ccc(CCOc2cncc3nnc(-c4ccc(Cl)cc4)n23)cc1F and test system Cryptococcus neoformans, the measured Inhibition is -0.27

COC(COc1cncc2nnc(-c3ccc(C#N)cc3)n12)c1ccc(F)c(F)c1 (centres undefined) tested on Cryptococcus neoformans gave Inhibition: -10.36

Inhibition for Cryptococcus neoformans with input Fc1ccc(CCOc2cncc3nnc(-c4ccc(C(F)(F)F)nc4)n23)cc1F equals -5.49

Entry CCN1C(=O)c2cccc3c(-c4cn(CCN5CCCNCCN(CCn6cc([C@]7(O)CC[C@H]8[C@@H]9CCc%10cc(O)ccc%10[C@H]9CC[C@@]87C)nn6)CCCNCC5)nn4)ccc(c23)C1=O.OCCN1CCN(CCCN2c3ccccc3Sc3ccc(Cl)cc32)CC1.[O-][Cl+3]([O-])([O-])[O-].[O-][Cl+3]([O-])([O-])[O-].[Zn+2] : Inhibition on Cryptococcus neoformans = 7.03
